Reference source: the supplement of paper PMC4862054

test system: CAL-85-1; assay: normalised response (% of control), CellTiter-Glo; higher = more viable cells (100 = DMSO, 0 = benzethonium chloride kill control); conditions: incubation time: 72 h
measured-attribute: normalised response (%)
Answers are plain numbers, in %.

Answered examples (2):
Ask: Observed normalised response on CAL-85-1 for CCN1CCN(c2ccc(Nc3cc(N(C)C(=O)Nc4c(Cl)c(OC)cc(OC)c4Cl)ncn3)cc2)CC1 [NVP-BGJ398] (1 nM) , please.
Reply: 98.3

Ask: Lookup Nc1ccn([C@@H]2O[C@H](CO)[C@@H](O)[C@@H]2O)c(=O)n1 [Cytarabine] (1000 nM)
Reply: 94.5

Could you now consider this next compound?
Ask: Observed normalised response on CAL-85-1 for O=C(c1ccc(C(=O)N2CCC(N3CCCC3)CC2)c(Nc2ccccc2)c1)N1CCC(N2CCCC2)CC1 [UNC1215] (3000 nM) , please.
Reply: 94.7
